Assignment: determine reported MIC Staphylococcus aureus (GC 4541) for the given compounds.
# System: Staphylococcus sp.
# procedure-details: In vitro antibacterial evaluation: minimum inhibitory concentration (MIC), broth dilution method
# Type: cell-based
# test-conditions: strain GC 4541
Answer format: number, then unit.

Entry under review: CC(c1ccccc1)C1NC(=O)CNC(=O)C(CO)NC(=O)C(C(O)C2CNC(=N)N2C2OC(CO)C(O)C(O)C2O)NC(=O)C(C(O)C2CNC(=N)N2)NC(=O)C(Cc2ccc(OC3OC(CO)C(OC4OC5COC(C6CCCCC6)OC5C(O)C4O)C(O)C3O)cc2)NC1=O (stereo not drawn) . Reported MIC Staphylococcus aureus (GC 4541)?
1 µg/mL

Entry under review: CC(c1ccccc1)C1NC(=O)CNC(=O)C(CO)NC(=O)C(C(O)C2CNC(=N)N2C2OC(CO)C(O)C(O)C2O)NC(=O)C(C(O)C2CNC(=N)N2)NC(=O)C(Cc2ccc(OC3OC(CO)C(OC4OC5COC6(CCCCCCCCCCC6)OC5C(O)C4O)C(O)C3O)cc2)NC1=O (stereo not drawn) . Reported MIC Staphylococcus aureus (GC 4541)?
2 µg/mL

Entry under review: CC(c1ccccc1)C1NC(=O)CNC(=O)C(CO)NC(=O)C(C(O)C2CNC(=N)N2C2OC(CO)C(O)C(O)C2O)NC(=O)C(C(O)C2CNC(=N)N2)NC(=O)C(Cc2ccc(OC3OC(CO)C(OC4OC5COC(c6cccs6)OC5C(O)C4O)C(O)C3O)cc2)NC1=O (stereo not drawn) . Reported MIC Staphylococcus aureus (GC 4541)?
2 µg/mL

====

# Tested on: Enterococcus sp.
# procedure-details: In vitro antibacterial evaluation: minimum inhibitory concentration (MIC), broth dilution method
# Format: cell-based
# test-conditions: Enterococcus faecalis (GC 4553); 18 hours at 35° C.
# Text: […]
observable: MIC Enterococcus faecalis (GC 4553) (µg/mL)
Give the value, in units of µg/mL, as a plain number.

Entry under review: CCCCCNC(=O)OCC1OC(OC2C(CO)OC(Oc3ccc(CC4NC(=O)C(C(C)c5ccccc5)NC(=O)CNC(=O)C(CO)NC(=O)C(C(O)C5CNC(=N)N5C5OC(CO)C(O)C(O)C5O)NC(=O)C(C(O)C5CNC(=N)N5)NC4=O)cc3)C(O)C2O)C(O)C(O)C1O (centres unmarked) [Example 251b] . Reported MIC Enterococcus faecalis (GC 4553)?
64

Entry under review: CC(c1ccccc1)C1NC(=O)CNC(=O)C(CO)NC(=O)C(C(O)C2CNC(=N)N2C2OC(CO)C(O)C(O)C2O)NC(=O)C(C(O)C2CNC(=N)N2)NC(=O)C(Cc2ccc(OC3OC(CO)C(OC4OC(CO)C(OCc5ccc(OCc6ccccc6)cc5)C(O)C4O)C(O)C3O)cc2)NC1=O (centres unmarked) [Example 231a] . Reported MIC Enterococcus faecalis (GC 4553)?
4

====

# Tested on: Enterococcus sp.
# procedure-details: In vitro antibacterial evaluation: minimum inhibitory concentration (MIC), broth dilution method
# Assay type: cell-based
# test-conditions: broth dilution, inoculum 5×10^5 CFU/mL, 18 hours at 35° C.
Assignment: determine reported MIC Enterococcus faecalis (GC 2691) for the given compounds.
Give the value, in units of µg/mL, as a plain number.

Requested read-out MIC Enterococcus faecalis (GC 2691), target or system Enterococcus sp., entry CC(c1ccccc1)C1NC(=O)CNC(=O)C(CO)NC(=O)C(C(O)C2CNC(=N)N2C2OC(CO)C(O)C(O)C2O)NC(=O)C(C(O)C2CNC(=N)N2)NC(=O)C(Cc2ccc(OC3OC(CO)C(OC4OC(CO)C(OCC=Cc5ccc(N(C)C)cc5)C(O)C4O)C(O)C3O)cc2)NC1=O (stereo not shown) [Example 243a]
32

Requested read-out MIC Enterococcus faecalis (GC 2691), target or system Enterococcus sp., entry COc1ccc(COC2C(CO)OC(OC3C(CO)OC(Oc4ccc(CC5NC(=O)C(C(C)c6ccccc6)NC(=O)CNC(=O)C(CO)NC(=O)C(C(O)C6CNC(=N)N6C6OC(CO)C(O)C(O)C6O)NC(=O)C(C(O)C6CNC(=N)N6)NC5=O)cc4)C(O)C3O)C(O)C2O)cc1OCc1ccccc1 (stereo not shown) [Example 239a]
8

Requested read-out MIC Enterococcus faecalis (GC 2691), target or system Enterococcus sp., entry CC(c1ccccc1)C1NC(=O)CNC(=O)C(CO)NC(=O)C(C(O)C2CNC(=N)N2C2OC(CO)C(O)C(O)C2O)NC(=O)C(C(O)C2CNC(=N)N2)NC(=O)C(Cc2ccc(OC3OC(CO)C(OC4OC5COC(c6cccc(Oc7cccc(C(F)(F)F)c7)c6)OC5C(O)C4O)C(O)C3O)cc2)NC1=O (stereo not shown)
32

Entry source: patent US8247211B2
